Test: RP, Thermo Scientific Hypersil GOLD, 1.9 µm, 40 °C, 0.4 mL/min; A: water + 0.1% formic acid, pH 3; B: acetonitrile + 0.1% formic acid, pH 3; gradient (min/%B) 0/0 1/0 11/100 13/100 14/0 16/0
Conditions: stereoisomer not certain
recorded metric: LC retention time (min)

molecule: CCCCCC(=O)OC(CC(=O)[O-])C[N+](C)(C)C [Hexanoyl-L-carnitine]
recorded metric: LC retention time
readout number: 5.67
--
molecule: Cc1cc2nc[nH]c2cc1C [5-6 DIMETHYLBENZIMIDAZOLE]
recorded metric: LC retention time
readout number: 5.05
--
molecule: Nc1ccnc(=O)[nH]1 [CYTOSINE]
recorded metric: LC retention time
readout number: 0.65
--
molecule: O=c1[nH]c(=O)c2[nH]c(=O)[nH]c2[nH]1 [URATE]
recorded metric: LC retention time
readout number: 0.81
--
molecule: CC(=O)c1ccc(O)cc1O [2'-4'-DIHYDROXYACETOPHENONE]
recorded metric: LC retention time
readout number: 6.1

P. Cc1ccc(O)c(O)c1 [4-METHYLCATECHOL]
Q. Cn1cncc1CC(NC(=O)CCN)C(=O)O (centres undefined) [ANSERINE]
R. O=C(O)c1cc(=O)c2cccc(O)c2[nH]1 [XANTHURENATE]
Q: Order by LC retention time, ascending. Output the labels ranked as instructed.
Result: Q, R, P

P. O=C(O)/C=C/c1ccccc1 [TRANS-CINNAMATE]
Q. Nc1c(O)cccc1C(=O)O [3-HYDROXYANTHRANILATE]
Q: Hi, I'm comparing P with Q and wondering which one has the bigger number for LC retention time. Any idea? Bench note: the answer is the label of the chosen record.
Result: P
(P: 6.96 min, Q: 3.43 min)

1. NC(CCSSCCC(N)C(=O)O)C(=O)O (centres undefined) [HOMOCYSTINE]
2. O=C(O)CCCCCCCCC(=O)O [Sebacic acid]
Q: From the items above, decide which of 1 and 2 has the lower LC retention time reading. Bench note: the answer is the label of the chosen record.
Result: 1

P. C[N+](C)(C)CCOP(=O)(O)OP(=O)([O-])OCC1OC(n2ccc(N)nc2=O)C(O)C1O (centres undefined) [CITICOLINE]
Q. NC(Cc1c[nH]c2ccc(O)cc12)C(=O)O (centres undefined) [5-HYDROXYTRYPTOPHAN]
Q: From the items above, decide which of P and Q has the lower LC retention time reading. Bench note: the answer is the label of the chosen record.
Result: P
(P: 0.64 min, Q: 1.99 min)

1. O=C(O)C(=O)CS [MERCAPTOPYRUVATE]
2. Cn1cnc2[nH]c(=O)[nH]c(=O)c21 [7-Methylxanthine]
Q: From the items above, decide which of 1 and 2 has the lower LC retention time reading. Bench note: the answer is the label of the chosen record.
Result: 1

a. OCC1OC(O)C(O)C(O)C1O (centres undefined) [GALACTOSE]
b. O=C1CC(c2ccc(O)cc2)Oc2cc(O)cc(O)c21 (centres undefined) [Naringenin]
Q: From the items above, decide which of a and b has the lower LC retention time reading. Bench note: the answer is the label of the chosen record.
Result: a
